- experimental target: Histamine H2 receptor (Homo sapiens, UniProt P25021)
- Sequence (P25021 whole entry): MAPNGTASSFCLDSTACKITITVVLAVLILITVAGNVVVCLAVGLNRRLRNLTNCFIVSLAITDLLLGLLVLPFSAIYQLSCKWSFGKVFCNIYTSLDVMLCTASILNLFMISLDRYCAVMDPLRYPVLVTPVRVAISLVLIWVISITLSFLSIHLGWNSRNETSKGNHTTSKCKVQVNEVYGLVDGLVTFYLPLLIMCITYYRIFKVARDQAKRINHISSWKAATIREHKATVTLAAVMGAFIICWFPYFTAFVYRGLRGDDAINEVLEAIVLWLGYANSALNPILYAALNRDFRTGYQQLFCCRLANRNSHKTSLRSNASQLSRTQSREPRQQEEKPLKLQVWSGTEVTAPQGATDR
value kind: Ki

Exam item: What reported Ki corresponds to C[C@@]12CCC[C@]3(C)C(=O)O[C@H](C[C@@]4(CO4)[C@]1(O)CCc1ccoc1)[C@H]23 on Histamine H2 receptor (Homo sapiens, UniProt P25021)?
Marked response: > 10 µM

----------
- experimental target: UniProtKB P20309
- Sequence (P20309 whole entry): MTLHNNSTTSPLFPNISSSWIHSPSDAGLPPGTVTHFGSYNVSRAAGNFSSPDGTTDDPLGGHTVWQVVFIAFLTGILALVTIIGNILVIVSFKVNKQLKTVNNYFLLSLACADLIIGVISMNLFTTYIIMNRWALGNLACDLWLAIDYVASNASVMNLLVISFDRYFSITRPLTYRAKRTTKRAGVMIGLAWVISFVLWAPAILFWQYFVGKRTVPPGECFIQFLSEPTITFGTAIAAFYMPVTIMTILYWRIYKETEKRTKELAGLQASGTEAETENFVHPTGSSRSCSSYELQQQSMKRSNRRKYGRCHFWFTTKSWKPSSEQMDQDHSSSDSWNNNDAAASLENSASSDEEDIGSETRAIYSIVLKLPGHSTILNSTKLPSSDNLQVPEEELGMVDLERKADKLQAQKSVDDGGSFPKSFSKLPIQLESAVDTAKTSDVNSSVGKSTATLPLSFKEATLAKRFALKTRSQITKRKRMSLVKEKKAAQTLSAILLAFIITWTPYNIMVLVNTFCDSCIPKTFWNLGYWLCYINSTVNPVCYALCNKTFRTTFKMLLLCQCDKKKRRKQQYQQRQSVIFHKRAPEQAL
value kind: Ki

Exam item: What reported Ki corresponds to C[C@@]12CCC[C@]3(C)C(=O)O[C@H](C[C@@]4(CO4)[C@]1(O)CCc1ccoc1)[C@H]23 [LEONOTININ] on UniProtKB P20309?
Marked response: > 10 µM
